The origin of these recorded values is the Immune Epitope Database (IEDB).

Experimental system: HLA-A*68:02
Method summary: IEDB peptide-MHC binding, purified MHC/competitive/fluorescence; filed as Kd, often an IC50 or EC50 that approximates it; bounds were set here for any values at or beyond the usual limits of such assays
Condition details: source organism: Pan troglodytes
Value type: Kd

Task item: Endpoint output: Kd of `FLFDRLTNG` . Value?
Reply: ≥ 20 µM

---

Experimental system: HLA-B*39:01
Method summary: IEDB peptide-MHC binding, purified MHC/competitive/fluorescence; filed as Kd, often an IC50 or EC50 that approximates it; bounds were set here for any values at or beyond the usual limits of such assays
Condition details: source organism: Bacillus anthracis str. A0488
Value type: pKd
// pKd: -log10(molar conc.)

Task item: Look up pKd with HLA-B*39:01 for this sequence: `KVQEWYLSY`
Reply: 7.06
